molecular target: T1, biotinylated CD3 epsilon:delta heterodimer protein (Amsbio AMS.CDD-H52WO) (Homo sapiens (Human), UniProt P07766 23-126; P04234 22-105); assay: BLI (Octet), CD3 on SA sensor, Fab analyte;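 also: fabs dipped at several concentrations (0–300 nM) onto CD3-loaded streptavidin biosensors, 100 s association then 300 s dissociation in buffer, pH 7.4, sensors blocked with biocytin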
T1 construct: also called CD3 heterodimer

Binder	Kd
huSP34.3.9 Fab-HF (Fab, V domains shown, also called HC3+LC9) VH: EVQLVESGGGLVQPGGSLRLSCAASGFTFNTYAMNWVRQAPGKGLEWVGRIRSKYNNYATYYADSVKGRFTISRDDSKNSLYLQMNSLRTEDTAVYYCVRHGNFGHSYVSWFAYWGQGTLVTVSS VL: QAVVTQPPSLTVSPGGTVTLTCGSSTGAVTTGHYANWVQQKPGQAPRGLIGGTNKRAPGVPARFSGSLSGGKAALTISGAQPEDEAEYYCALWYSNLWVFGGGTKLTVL	3.5 nM
